pIC50: −log10 of the molar value.
Notes on pIC50 obtained with c-Raf-1 (Homo sapiens).
Sequence (P04049 whole entry): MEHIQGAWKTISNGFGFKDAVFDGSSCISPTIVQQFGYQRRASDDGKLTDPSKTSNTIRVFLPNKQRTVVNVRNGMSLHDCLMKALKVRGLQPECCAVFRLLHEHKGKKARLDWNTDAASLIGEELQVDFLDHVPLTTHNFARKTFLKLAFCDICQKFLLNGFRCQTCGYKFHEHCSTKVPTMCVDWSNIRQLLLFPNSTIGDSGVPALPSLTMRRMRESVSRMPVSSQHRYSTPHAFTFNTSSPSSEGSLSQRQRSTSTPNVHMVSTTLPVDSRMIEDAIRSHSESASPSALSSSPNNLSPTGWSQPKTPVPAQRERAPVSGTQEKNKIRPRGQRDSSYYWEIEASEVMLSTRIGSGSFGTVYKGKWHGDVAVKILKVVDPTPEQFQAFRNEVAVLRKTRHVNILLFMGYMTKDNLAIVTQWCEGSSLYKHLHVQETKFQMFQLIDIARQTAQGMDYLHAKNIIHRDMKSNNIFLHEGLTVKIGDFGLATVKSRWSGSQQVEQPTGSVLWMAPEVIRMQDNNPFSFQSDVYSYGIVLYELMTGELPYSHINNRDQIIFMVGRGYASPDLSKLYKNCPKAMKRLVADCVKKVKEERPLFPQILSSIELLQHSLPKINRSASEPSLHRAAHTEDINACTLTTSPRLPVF
PROPERTY: pIC50

- COMPOUND: "CCCS(=O)(=O)Oc1ccc(F)c(C(=O)c2c[nH]c3ncc(Br)cc23)c1F"
  ASSAY_VALUE: "≥ 5.00"
- COMPOUND: "CCCS(=O)(=O)Nc1ccc(Cl)c(C(=O)c2c[nH]c3ncccc23)c1F"
  ASSAY_VALUE: "≥ 5.00"
- COMPOUND: "O=C(c1cccc(OC(F)(F)F)c1)c1c[nH]c2ncc(-c3cccnc3)cc12"
  ASSAY_VALUE: "≥ 5.00"
- COMPOUND: "O=C(O)c1ccc(F)c(C(=O)c2c[nH]c3ncc(-c4cccnc4)cc23)c1F"
  ASSAY_VALUE: "≥ 5.00"
- COMPOUND: "CC(C)S(=O)(=O)Nc1ccc(F)c(C(O)c2c[nH]c3ncc(Br)cc23)c1F (centres unmarked)"
  ASSAY_VALUE: "≥ 5.00"
- COMPOUND: "CN(C)c1cccc(Nc2ccnc3[nH]ccc23)c1"
  ASSAY_VALUE: "≥ 5.00"
- COMPOUND: "O=C(Nc1ccc(F)c(C(=O)c2c[nH]c3ncc(-c4cccnc4)cc23)c1F)OCc1ccccc1"
  ASSAY_VALUE: "≥ 5.00"
- COMPOUND: "CC(C)S(=O)(=O)Nc1ccc(F)c(Cc2c[nH]c3ncc(-c4cccnc4)cc23)c1F"
  ASSAY_VALUE: "≥ 5.00"

* * *

molecular target: B-Raf V600E (Homo sapiens, UniProt P15056, V600E); construct: P4254. pFastBacBD-CDC37 BRAF D437-K722-X, V600E; His6 with pFastBac HT leader (TEV site) (N); made in house; host or cells: Sf9 (baculovirus; chaperone CDC37 co-expressed); experiment: AlphaScreen kinase assay, B-Raf V600E; assay type: biochemical; settings: read-out: IC50, activity toward kinase B-Raf V600E
Sequence (P15056 with tags, fused parts or gaps V600E): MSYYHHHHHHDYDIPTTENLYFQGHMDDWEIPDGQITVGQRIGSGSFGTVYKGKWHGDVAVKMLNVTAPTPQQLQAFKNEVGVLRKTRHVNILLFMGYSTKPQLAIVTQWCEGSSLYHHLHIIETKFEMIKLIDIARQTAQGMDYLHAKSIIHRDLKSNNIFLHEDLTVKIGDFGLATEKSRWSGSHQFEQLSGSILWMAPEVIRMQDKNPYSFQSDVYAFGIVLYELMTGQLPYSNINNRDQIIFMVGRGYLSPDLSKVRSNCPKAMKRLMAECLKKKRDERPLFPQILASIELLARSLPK
pIC50: −log10 of the molar value.
PROPERTY: pIC50

- MOLECULE: "O=C(Nc1cccc(C(=O)c2c[nH]c3ncc(-c4cccnc4)cc23)c1)Nc1cc(C(F)(F)F)ccc1Cl [Compound P-1732]"
  PROPERTY: "pIC50"
  ASSAY_VALUE: "≥ 5.00"
- MOLECULE: "CC(=O)Oc1cccc(C(=O)c2c[nH]c3ncc(Br)cc23)c1C [Compound P-0271]"
  PROPERTY: "pIC50"
  ASSAY_VALUE: "≥ 5.00"
- MOLECULE: "CN(C)S(=O)(=O)Nc1ccc(F)c(C(=O)c2c[nH]c3ncc(-c4cccnc4)cc23)c1F [Compound P-0837]"
  PROPERTY: "pIC50"
  ASSAY_VALUE: "≥ 5.00"
- MOLECULE: "NC(=O)c1ccc(-c2ccnc3[nH]cc(C(=O)c4ccccc4F)c23)cc1 [Compound P-0014]"
  PROPERTY: "pIC50"
  ASSAY_VALUE: "≥ 5.00"
- MOLECULE: "CCCCOc1ccc(NC(=O)Nc2cccc(C(=O)c3c[nH]c4ncc(-c5cccnc5)cc34)c2)cc1 [Compound P-1729]"
  PROPERTY: "pIC50"
  ASSAY_VALUE: "≥ 5.00"
- MOLECULE: "COc1ccc(-c2ccnc3[nH]cc(C(=O)c4cc(C)on4)c23)cn1 [Compound P-1113]"
  PROPERTY: "pIC50"
  ASSAY_VALUE: "≥ 5.00"
- MOLECULE: "CS(=O)(=O)Nc1ccc(F)c(C(=O)c2c[nH]c3ncc(-c4cccnc4)cc23)c1 [Compound P-0079]"
  PROPERTY: "pIC50"
  ASSAY_VALUE: "≥ 5.00"
- MOLECULE: "O=C(Nc1cccc(C(=O)c2c[nH]c3ncccc23)c1)Nc1ccon1 [Compound P-1764]"
  PROPERTY: "pIC50"
  ASSAY_VALUE: "≥ 5.00"
- MOLECULE: "OC(c1ccc2c(c1)OC(F)(F)O2)c1c[nH]c2ncc(Br)cc12 (centres unmarked) [Compound P-1550]"
  PROPERTY: "pIC50"
  ASSAY_VALUE: "≥ 5.00"
- MOLECULE: "CCCS(=O)(=O)Nc1ccc(F)c(C(O)c2c[nH]c3ncc(OC)cc23)c1F (centres unmarked) [Compound P-1243]"
  PROPERTY: "pIC50"
  ASSAY_VALUE: "≥ 5.00"
- MOLECULE: "O=C(Nc1cccc(C(=O)c2c[nH]c3ncccc23)c1)Nc1ccc(C(F)(F)F)c(Cl)c1 [Compound P-1766]"
  PROPERTY: "pIC50"
  ASSAY_VALUE: "≥ 5.00"
- MOLECULE: "O=C(Nc1cccc(C(=O)c2c[nH]c3ncccc23)c1)Nc1cc(C(F)(F)F)ccc1Cl [Compound P-1712]"
  PROPERTY: "pIC50"
  ASSAY_VALUE: "≥ 5.00"
- MOLECULE: "CCCS(=O)(=O)Nc1cccc(C(=O)c2c[nH]c3ncc(-c4ccccc4)cc23)c1C [Compound P-1610]"
  PROPERTY: "pIC50"
  ASSAY_VALUE: "≥ 5.00"
- MOLECULE: "COCCOc1ccc(F)c(C(=O)c2c[nH]c3ncc(-c4cccc(NS(C)(=O)=O)c4)cc23)c1F [Compound P-1472]"
  PROPERTY: "pIC50"
  ASSAY_VALUE: "≥ 5.00"
- MOLECULE: "Nc1cccc(-c2cnc3[nH]cc(C(=O)c4ccccc4F)c3c2)c1 [Compound P-0624]"
  PROPERTY: "pIC50"
  ASSAY_VALUE: "≥ 5.00"
- MOLECULE: "CN(C)c1cccc(Nc2ccnc3[nH]ccc23)c1 [Compound P-0861]"
  PROPERTY: "pIC50"
  ASSAY_VALUE: "≥ 5.00"
- MOLECULE: "NC(=O)Nc1ccc(F)c(C(=O)c2c[nH]c3ncc(Br)cc23)c1 [Compound P-1570]"
  PROPERTY: "pIC50"
  ASSAY_VALUE: "≥ 5.00"
- MOLECULE: "O=C(c1cccc(OC(F)(F)F)c1)c1c[nH]c2ncc(-c3cccnc3)cc12 [Compound P-1413]"
  PROPERTY: "pIC50"
  ASSAY_VALUE: "≥ 5.00"
- MOLECULE: "CN(C)S(=O)(=O)Nc1ccc(F)c(C(=O)c2c[nH]c3ncc(-c4ccccc4)cc23)c1F [Compound P-0857]"
  PROPERTY: "pIC50"
  ASSAY_VALUE: "≥ 5.00"
- MOLECULE: "CCCCNC(=O)Nc1cccc(Cc2c[nH]c3ncc(-c4cccnc4)cc23)c1 [Compound P-1447]"
  PROPERTY: "pIC50"
  ASSAY_VALUE: "≥ 5.00"
- MOLECULE: "COc1ccc(F)c(C(=O)c2c[nH]c3ncc(-c4cccs4)cc23)c1 [Compound P-0656]"
  PROPERTY: "pIC50"
  ASSAY_VALUE: "≥ 5.00"
- MOLECULE: "Brc1cnc2[nH]cc(Cc3ccc4c(c3)OCCO4)c2c1 [Compound P-1474]"
  PROPERTY: "pIC50"
  ASSAY_VALUE: "≥ 5.00"
- MOLECULE: "O=C(Nc1cccc(C(=O)c2c[nH]c3ncc(Cl)cc23)c1)Nc1ccc(F)c(F)c1 [Compound P-1735]"
  PROPERTY: "pIC50"
  ASSAY_VALUE: "≥ 5.00"
- MOLECULE: "CCCS(=O)(=O)Nc1ccc(F)c(C(O)c2c[nH]c3ncc(N4CCOCC4)cc23)c1F (centres unmarked) [Compound P-1071]"
  PROPERTY: "pIC50"
  ASSAY_VALUE: "≥ 5.00"
- MOLECULE: "COC(c1c(F)ccc(O)c1F)c1c[nH]c2ncc(Br)cc12 (centres unmarked) [Compound P-0126]"
  PROPERTY: "pIC50"
  ASSAY_VALUE: "≥ 5.00"
- MOLECULE: "CCCS(=O)(=O)Nc1ccc(F)c(Cc2c[nH]c3ncc(Cl)cc23)c1F [Compound P-1396]"
  PROPERTY: "pIC50"
  ASSAY_VALUE: "≥ 5.00"
- MOLECULE: "Clc1cccc(Cl)c1Cc1c[nH]c2ncc(-c3cccnc3)cc12 [Compound P-1478]"
  PROPERTY: "pIC50"
  ASSAY_VALUE: "≥ 5.00"
- MOLECULE: "Cn1cc(-c2cnc3[nH]cc(C(=O)c4c(F)ccc(NS(=O)(=O)c5cccc(F)c5)c4F)c3c2)cn1 [Compound P-1997]"
  PROPERTY: "pIC50"
  ASSAY_VALUE: "≥ 5.00"
- MOLECULE: "CCC(C)c1ccc(Nc2cnc3[nH]ccc3c2)cc1 (centres unmarked) [Compound P-1128]"
  PROPERTY: "pIC50"
  ASSAY_VALUE: "≥ 5.00"
- MOLECULE: "Cc1ccccc1NC(=O)Nc1cccc(C(=O)c2c[nH]c3ncccc23)c1 [Compound P-1720]"
  PROPERTY: "pIC50"
  ASSAY_VALUE: "≥ 5.00"
- MOLECULE: "O=C(c1ccc2c(c1)OC(F)(F)O2)c1c[nH]c2ncc(-c3cccnc3)cc12 [Compound P-1558]"
  PROPERTY: "pIC50"
  ASSAY_VALUE: "≥ 5.00"
- MOLECULE: "COc1ccc(NC(=O)Nc2cccc(C(=O)c3c[nH]c4ncccc34)c2)cc1 [Compound P-1705]"
  PROPERTY: "pIC50"
  ASSAY_VALUE: "≥ 5.00"
